assay.text: Relaxivity in the absence and presence of HSA (Example 3)
Format: physicochemical
conditions.used: 20 MHz; presence of HSA (second value of cell)
Experimental: ^1H and ^13C NMR spectra were recorded on a Varian 500 NMR system equipped with a 5 mm broadband probe. Longitudinal relaxation times, T1, were measured by using the inversion recovery method on Bruker Minispecs. mq20 (20 MHz) and mq60 (60 MHz). […]
# r1 (20 MHz), presence of HSA values compiled below

molecule | r1 (20 MHz), presence of HSA
C[C@@H](NC(=O)C(CN1CCN(CC(=O)O)CCN(CC(=O)O)CCN(CC(=O)O)CC1)NC(=O)C(N)Cc1cc(I)c(O)c(I)c1)c1ccccc1 (stereo partly shown) [Gd (13-R)] | 18.4 mM⁻¹ s⁻¹
C[C@@H](C(=O)NC(CN1CCN(CC(=O)O)CCN(CC(=O)O)CCN(CC(=O)O)CC1)C(=O)N[C@@H](Cc1cc(I)c(O)c(I)c1)C(=O)O)c1ccccc1 (stereo partly shown) [Gd (19)] | 30.7 mM⁻¹ s⁻¹
COC(=O)CNC(=O)C(CN1CCN(CC(=O)O)CCN(CC(=O)O)CCN(CC(=O)O)CC1)NC(=O)C(N)Cc1cc(I)c(O)c(I)c1 (stereo not shown) [Gd (7)] | 7.05 mM⁻¹ s⁻¹
C[C@@H](NC(=O)C(CN1CCN(CC(=O)O)CCN(CC(=O)O)CCN(CC(=O)O)CC1)NC(=O)C(N)Cc1cc(I)c(O)c(I)c1)c1ccccc1 (stereo partly shown) [Gd (13-S)] | 18.5 mM⁻¹ s⁻¹

====

assay.text: Ligand challenge, equilibrium constant Kcomp of MS-325 vs. L
Format: physicochemical
conditions.used: pH 7.4; calculated from literature thermodynamic data

molecule | Kcomp MS-325 vs. L pH 7.4
O=C(O)CN1CCNCCN(CC(=O)O)CCN(CC(=O)O)CC1 | 0.00017^5,6
CC(O)CN1CCN(CC(=O)O)CCN(CC(=O)O)CCN(CC(=O)O)CC1 (stereo not shown) | 0.07^5,6
O=C(O)CN(CCN(CC(=O)O)CC(=O)O)CCN(CC(=O)O)CC(=O)O | 0.35^5
O=C(O)CN(CCN(CC(=O)O)C[C@H](COP(=O)(O)OC1CCC(c2ccccc2)(c2ccccc2)CC1)N(CC(=O)O)CC(=O)O)CC(=O)O | 1
